System: Saccharomyces cerevisiae
Assay Text: protein stability index of tFT-peptide fusion (C-terminal peptide) (PSI (0-1 scale)); higher = more stable (slower turnover)
Recorded Conditions: genetic background: wild type; temperature: 37 C
If the reported protein stability index equals or exceeds 0.5, assign TRUE. If not, assign FALSE.

Some entries whose results are on file:
PIKIYGYLTTVV; TRUE
KIIKERIRRIKI; FALSE
GFFFFHGLCFFV; TRUE
QCLSYFFPVPVA; FALSE
CCFVGLRYVLWV; FALSE
CSKGLSILLLLL; TRUE
FYFLSFLLLLSP; FALSE
GGVVGRPWWYVG; TRUE

Is reported protein stability index greater than or equal to 0.5 here: PVGRSVFFVWFL
TRUE

Is reported protein stability index greater than or equal to 0.5 here: SGFLRFRGLVCY
FALSE

Is reported protein stability index greater than or equal to 0.5 here: FLRWRVWVVVGW
FALSE

Is reported protein stability index greater than or equal to 0.5 here: SVLAIWLTVTLK
FALSE

Is reported protein stability index greater than or equal to 0.5 here: PSLPPLPPFAAL
TRUE

Is reported protein stability index greater than or equal to 0.5 here: WVFMVILLVFLV
FALSE

Is reported protein stability index greater than or equal to 0.5 here: LVWSGLIVVVGG
FALSE

* * *

System: Saccharomyces cerevisiae
Assay Text: protein stability index of tFT-peptide fusion (C-terminal peptide) (PSI (0-1 scale)); higher = more stable (slower turnover)
Recorded Conditions: genetic background: wild type; temperature: 30 C
Field: protein stability index. Provide a value for each of the sequences that follow.
One number for each entry.

GIFYVRTIWSCG; 0.17
LCAFLKLFILII; 0.141
VWFVFVCAVCVL; 0.163
FGVLGCAWVWVG; 0.114
WPRSFSIILLSR; 0.288

Give one value of protein stability index per listed sequence.
1. CVPGPRWWYHSA
2. LLPLLFFFLCLP
3. ALTLSYAIKLKV
4. LPLHPHRSRYLV
5. LISGVCLRVKVG
6. FWFSFSFLCHSY
7. FPTLHPAIPYLC
8. VCFFLFWCLSFS

0.272
0.452
0.265
0.0982
0.193
0.38
0.282
0.353

* * *

System: Saccharomyces cerevisiae;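 further: PSI is a weighted mean of sequencing reads over stability bins, variants kept only with over 10 reads, mCherry proximal and sfGFP distal, peptide attached via GGGS linker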
Assay Text: protein stability index of tFT-peptide fusion (C-terminal peptide) (PSI (0-1 scale)); higher = more stable (slower turnover)
Recorded Conditions: genetic background: doa10 deletion; temperature: 30 C
Measured Quantity: protein stability index
Numbers only.

YSVERCLFVSVA; 0.287
IGWKLNRIQKNI; 0.15
GCILSLCYAVST; 0.296
GPPPAPSPTPSP; 0.685
LLVRSFIFPLVY; 0.282
FKVTWGLFYGSV; 0.535
SPPHSPSALPPP; 0.685
KLSLRYLLVSLI; 0.101

Give one value of protein stability index per listed sequence.
1. LSLWPIFGIIYC
2. FFVFLVLFCLWV
3. TCGAKWIFSHIC

[0.332, 0.321, 0.14]

Give one value of protein stability index per listed sequence.
1. MALAVRVVSCGA
2. WAIMGLIIFCLF
3. LLRLPLLALLFV
4. GVLLLGSYQWVG
5. SRVGAGVVRGVG
6. SGFWVSVDVFFV

0.224
0.222
0.337
0.395
0.512
0.122

Give one value of protein stability index per listed sequence.
1. LFYVCPFVCFLC
2. PRQGGDFVARVG
3. MGDFGFIFVFFL

1: 0.307; 2: 0.631; 3: 0.383
